Listing of recorded pIC50 by entry.
# System: MCF7
# test summary: Antiproliferative activity against human MCF7 cells after 72 hrs by sulforhodamine B assay
# Assay type: functional, cell-based
# study conditions: MCF7, 72 h
pIC50: −log10 of the molar value.
quantity kind: pIC50

- Cc1c2ccccc2nc2c1c1cc(NC(=O)CN)ccc1n2CCN(C)C.Cl.Cl.Cl: 6.12
- Cc1c2ccccc2nc2c1c1cc(N)ccc1n2CCN(C)C: 6.48
- Cc1c2ccccc2nc2c1c1cc(NC(=O)[C@@H]3CCCN3)ccc1n2CCN(C)C: 6.49
- Cc1c2ccccc2nc2c1c1cc(NC(=N)N)ccc1n2CCN(C)C.Cl.Cl.Cl.Cl: 6.09
- Cc1c2c3cc(NC(=O)[C@@H]4CCCN4C(=N)N)ccc3nc-2n(C)c2ccccc12: 5.11

---

Listing of recorded pIC50 by entry.
# Test system: LoVo
# test summary: Antiproliferative activity against human LoVo cells after 72 hrs by sulforhodamine B assay
# Assay type: functional, cell-based
pIC50: −log10 of the molar value.
quantity kind: pIC50

* Cc1c2ccccc2nc2c1c1cc(NC(=O)[C@@H]3CCCN3)ccc1n2CCN(C)C | 7.22
* Cc1c2ccccc2nc2c1c1cc(NC(=O)CN)ccc1n2CCN(C)C.Cl.Cl.Cl | 7.05
* Cc1c2ccccc2nc2c1c1cc(NC(=O)CNC(=N)N)ccc1n2CCN(C)C | 6.09
* Cc1c2ccccc2nc2c1c1cc(NC(=O)[C@@H]3CCCN3C(=N)N)ccc1n2CCN(C)C | 5.08
* Cc1c2c3cc(NC(=O)[C@@H]4CCCN4C(=N)N)ccc3nc-2n(C)c2ccccc12 | 5.11

---

# test summary: Induction of DNA intercalation (unknown origin) after 24 hrs by methyl green dye displacement assay
Listing of recorded IC50 by entry.
quantity kind: IC50

• Cc1c2c3cc(NC(=O)CNC(=N)N)ccc3nc-2n(C)c2ccccc12.Cl.Cl.Cl = 40.5 µM
• Cc1c2ccccc2nc2c1c1cc(NC(=O)CN)ccc1n2CCN(C)C.Cl.Cl.Cl = 80.3 µM
• Cc1c2ccccc2nc2c1c1cc(NC(=O)[C@@H]3CCCN3)ccc1n2CCN(C)C = 42.2 µM
• CCOc1ccc(-c2nc3ccc(-c4nc5ccc(N6CCN(C)CC6)cc5[nH]4)cc3[nH]2)cc1 = 12.1 µM
• Cc1c2c3ccccc3nc-2n(C)c2ccccc12 = 367 µM
• Cc1c2c3cc(NC(=N)N)ccc3nc-2n(C)c2ccccc12.Cl.Cl = 71.5 µM
• Cc1c2ccccc2nc2c1c1cc(N)ccc1n2CCN(C)C = 125 µM
• Cc1c2ccccc2nc2c1c1cc(NC(=N)N)ccc1n2CCN(C)C.Cl.Cl.Cl.Cl = 101 µM
• Cc1c2c3cc(N)ccc3nc-2n(C)c2ccccc12 = 150 µM

---

# System: BALB/3T3
# test summary: Cytotoxicity against mouse BALB/3T3 cells assessed as cell viability after 1 hr by sulforhodamine B assay
# Assay type: cell-based
# study conditions: BALB/3T3, 1 h
I'd appreciate it if you marked entries 1 when IC50 is lower than 0.6 µM and -1 when it is not.

• Cc1c2c3cc(NC(=O)[C@@H]4CCCN4C(=N)N)ccc3nc-2n(C)c2ccccc12 = -1
• Cc1c2ccccc2nc2c1c1cc(N)ccc1n2CCN(C)C = 1
• Cc1c2ccccc2nc2c1c1cc(NC(=N)N)ccc1n2CCN(C)C.Cl.Cl.Cl.Cl = -1
• Cc1c2c3cc(NC(=O)CNC(=N)N)ccc3nc-2n(C)c2ccccc12.Cl.Cl.Cl = -1
• Cc1c2c3cc(N)ccc3nc-2n(C)c2ccccc12 = 1
• Cc1c2ccccc2nc2c1c1cc(NC(=O)[C@@H]3CCCN3)ccc1n2CCN(C)C = 1
• Cc1c2c3cc(NC(=N)N)ccc3nc-2n(C)c2ccccc12.Cl.Cl = -1
• Cc1c2ccccc2nc2c1c1cc(NC(=O)CNC(=N)N)ccc1n2CCN(C)C = -1
• Cc1c2ccccc2nc2c1c1cc(NC(=O)[C@@H]3CCCN3C(=N)N)ccc1n2CCN(C)C = -1
